quantity: intrinsic clearance, rat liver microsomes (mL/min/kg)

// below: answered compounds
{"compound": "COc1ccc(Nc2ncnc3sccc23)c(OC)c1", "readout number": 605}
{"compound": "CC1(C)CCN(C(=O)NCCOc2cccnc2)C1", "readout number": 47.9}
{"compound": "CC(C)(C)OC(=O)c1ccc(-n2[nH]cc(-n3ccnn3)c2=O)nc1", "readout number": 20.7}

[P] COc1ccc(NC(=O)CN2CCCC2)cc1
[Q] CCN1CCN(Cc2ccc(Nc3ncc(F)c(-c4cc(F)c5nc(C)n(C(C)C)c5c4)n3)nc2)CC1.CS(=O)(=O)O
Which shows the larger intrinsic clearance, rat liver microsomes value: P or Q ? Reply with the label of the item you choose.
P
(P: 1850 mL/min/kg, Q: 107 mL/min/kg)

[I] CS(=O)(=O)c1ccc(-c2cnc(NCc3ccco3)n3cnnc23)cc1
[II] CCc1cc2c(OCC(=O)N3CCCC3)ncnc2s1
[III] CC1CCC(CNC2(CCO)CCOCC2)CC1 (centres undefined)
List the 3 entries from lowest intrinsic clearance, rat liver microsomes to highest intrinsic clearance, rat liver microsomes value. Write the labels, ordered according to the request.
I, II, III
(I: 31.2 mL/min/kg, II: 597 mL/min/kg, III: 1200 mL/min/kg)
